# pKi per entry
- subject.of.test: Rat α4β2 (Rattus norvegicus, UniProt P09483+P12390)
- Construct: Rat cortices were obtained from Analytical Biological Services; tissue Analytical Biological Services, Incorporated (ABS, Wilmington, Del.); host or cells: rat cortex (female Sprague-Dawley)
- experimental.details: Competition binding to rat α4β2 receptors in rat cortical membranes
- study.conditions: rat cortex membranes, read-out: Rat α4β2 Ki
pKi: −log10 of the molar value.
reported.property: pKi

O=C(C1CC2CCC1C2)N1CC2CC(C1)N2 (stereo not shown) : 6.66
O=C(C1CC2C=CC1C2)N1C2CNCC1C2 (stereo not shown) : 6.42
O=C(C1CC=CCC1)N1CC2CC(C1)N2 (stereo not shown) : 6.41
O=C([C@@H]1C[C@@H]2C=C[C@H]1C2)N1CC2CC(C1)N2 : 6.68
O=C(c1ccc(Br)o1)N1C2CNCC1C2 : 6.59
CCC(C)C(=O)N1CC2CC(C1)N2 (stereo not shown) : 6.62
Cc1ncoc1C(=O)N1C2CNCC1C2 : 6.60
CC1(C)CC(C(=O)N2CC3CC(C2)N3)C1 : 6.28
O=C(CC1CCOC1)N1C2CNCC1C2 (stereo not shown) : 6.89
O=C(NCc1ccccc1)N1CC2CC(C1)N2 : 6.70
CCC[C@H]1C[C@H]1C(=O)N1CC2CC(C1)N2 : 6.89
CC1(C)C(C(=O)N2CC3CC(C2)N3)C1(C)C : 6.15
C[C@H]1C[C@H]1C(=O)N1C2CNCC1C2 : 6.74
